Measured MIC, listed per entry.
# Tested on: Mycoplasma gallisepticum 34159
# Experimental Details: MIC, conventional broth-dilution microtiter test, Mycoplasma gallisepticum 34159 (tylosin-resistant)
# Assay type: cell-based
# Experimental Setup: Mycoplasmoides gallisepticum, Mycoplasma gallisepticum 34159, tylosin-resistant strain
Give the number; µg/mL is assumed, so skip it.

Below, each entry is followed by its recorded MIC result.
| Compound | Measurement Target | MIC, µg/mL |
| --- | --- | --- |
| CCC1OC(=O)CC(OC(C)=O)C(C)C(OC2OC(C)C(OC3CC(C)(O)C(OC(=O)CC(C)C)C(C)O3)C(N(C)C)C2O)C(CC=O)CC(C)C(=O)C=CC(C)=CC1COC1OC(C)C(O)C(O)C1OC (stereo not shown) | Mycoplasma gallisepticum 34159 | 3.12 |
| CCCC(=O)OC1C(C)OC(OC2C(C)OC(OC3C(CC=O)CC(C)C(=O)C=CC(C)=CC(COC4OC(C)C(O)C(O)C4OC)C(CC)OC(=O)CC(OC(C)=O)C3C)C(O)C2N(C)C)CC1(C)O (stereo not shown) | Mycoplasma gallisepticum 34159 | 6.25 |

Now for the compound whose MIC we want.
What measured MIC goes with CCC1OC(=O)CC(OC(C)=O)C(C)C(OC2OC(C)C(OC3CC(C)(O)C(O)C(C)O3)C(N(C)C)C2O)C(CC=O)CC(C)C(=O)C=CC(C)=CC1COC1OC(C)C(O)C(O)C1OC (stereo not shown) ?
50

---

# Test system: Mycoplasma synoviae 46995
# Experimental Details: MIC, conventional broth-dilution microtiter test, Mycoplasma synoviae 46995
# Type: cell-based
# Experimental Setup: Mycoplasmopsis synoviae
Measured Parameter: MIC

Below, each entry is followed by its recorded MIC result.
| Molecule | MIC |
| --- | --- |
| CCC1OC(=O)CC(OC(C)=O)C(C)C(OC2OC(C)C(OC3CC(C)(O)C(OC(=O)CC(C)C)C(C)O3)C(N(C)C)C2O)C(CC=O)CC(C)C(=O)C=CC(C)=CC1COC1OC(C)C(O)C(O)C1OC (stereo not shown) [3-Acetyl-4"-Isovaleryl-macrocin, 3-O-acetyl-4"-O-isovalerylmacrocin] | ≤ 0.048 µg/mL |
| CCC1OC(=O)CC(OC(C)=O)C(C)C(OC2OC(C)C(OC3CC(C)(O)C(O)C(C)O3)C(N(C)C)C2O)C(CC=O)CC(C)C(=O)C=CC(C)=CC1COC1OC(C)C(O)C(O)C1OC (stereo not shown) [3-Acetyl-macrocin, 3-O-Acetylmacrocin] | 0.39 µg/mL |
| CCC1OC(=O)CC(OC(C)=O)C(C)C(OC2OC(C)C(O)C(N(C)C)C2O)C(CC=O)CC(C)C(=O)C=CC(C)=CC1COC1OC(C)C(O)C(O)C1OC (stereo not shown) [3-Acetyl-lactenocin, 3-O-Acetyllactenocin] | 0.39 µg/mL |

Now for the molecule whose MIC we want.
What measured MIC goes with CCCC(=O)OC1C(C)OC(OC2C(C)OC(OC3C(CC=O)CC(C)C(=O)C=CC(C)=CC(COC4OC(C)C(O)C(O)C4OC)C(CC)OC(=O)CC(OC(C)=O)C3C)C(O)C2N(C)C)CC1(C)O (stereo not shown) [3-Acetyl-4"-(n-Butyryl)-macrocin, 3-O-acetyl-4"-O-(n-butyryl)macrocin] ?
≤ 0.048 µg/mL

---

Measured MIC, listed per entry.
# System: Mycoplasma gallisepticum 38502
# Experimental Details: MIC, conventional broth-dilution microtiter test, Mycoplasma gallisepticum 38502 (tylosin-susceptible)
# Assay type: cell-based
# Experimental Setup: Mycoplasmoides gallisepticum, Mycoplasma gallisepticum 38502, tylosin-susceptible strain

| Compound | MIC |
| --- | --- |
| CCC1OC(=O)CC(OC(C)=O)C(C)C(OC2OC(C)C(O)C(N(C)C)C2O)C(CC=O)CC(C)C(=O)C=CC(C)=CC1COC1OC(C)C(O)C(O)C1OC (stereo not shown) [3-Acetyl-lactenocin, 3-O-Acetyllactenocin] | 0.78 mg/L |
| CCC1OC(=O)CC(OC(C)=O)C(C)C(OC2OC(C)C(OC3CC(C)(O)C(OC(=O)CC(C)C)C(C)O3)C(N(C)C)C2O)C(CC=O)CC(C)C(=O)C=CC(C)=CC1COC1OC(C)C(O)C(O)C1OC (stereo not shown) [3-Acetyl-4"-Isovaleryl-macrocin, 3-O-acetyl-4"-O-isovalerylmacrocin] | ≤ 0.048 mg/L |
| CCC1OC(=O)CC(OC(C)=O)C(C)C(OC2OC(C)C(OC3CC(C)(O)C(O)C(C)O3)C(N(C)C)C2O)C(CC=O)CC(C)C(=O)C=CC(C)=CC1COC1OC(C)C(O)C(O)C1OC (stereo not shown) [3-Acetyl-macrocin, 3-O-Acetylmacrocin] | 0.78 mg/L |

Now for the compound whose MIC we want.
What measured MIC goes with CCCC(=O)OC1C(C)OC(OC2C(C)OC(OC3C(CC=O)CC(C)C(=O)C=CC(C)=CC(COC4OC(C)C(O)C(O)C4OC)C(CC)OC(=O)CC(OC(C)=O)C3C)C(O)C2N(C)C)CC1(C)O (stereo not shown) [3-Acetyl-4"-(n-Butyryl)-macrocin, 3-O-acetyl-4"-O-(n-butyryl)macrocin] ?
0.195 mg/L
